experiment: yeast display, Sf9 membrane polyspecificity reagent, FACS + sequencing; frameworks hold sequencing errors
Experimental readout: polyreactivity (PSR sort gate)

Guide cases for polyreactivity (PSR sort gate), answers given:
QVQLVESGGGLVQAGGSLRLSCAASGSTSDDNTMGWYRQAPGKERELVAAITWSGGRTSYADSVKGRFTISRDNAKNTVYLQMNSLKPEDTAVYYCAADKSGRGLDYWGQGTQVTVSS ... low polyreactivity
QVQLVESGGGLVQAGGSLRLSCAASGYTMGWYRQAPGKEREYGAAINQTGGSTYADSVKGRFTISRDNAKNTVYLQMNSLKPEDTAVYYCATDPAYWGDQPPEYDYWGQGTQVTVSS ... low polyreactivity
QFQLVESGGGLVQAGGSLRLSCAASGITFSNYALGWYRQAPGKERELVAAISKRGGSTYYADSVKGRFTISRDNAKTTVDLQMNSLKPEDTAVYYCAADAYNPPYWVDPYDYWGQGTQVTVSS ... high polyreactivity
QLQIVESGGGLVQAGGSLRLTCAASGSTFPLYAMGWYSQAPGKEREFVAAIRWIGGSTYYADSVKGRFTISRDNAKNSVYLLMNSLKPEDTAVYYGAADYVVSAFDYWGQGTQVTVSS ... low polyreactivity
QVQLVESGGGLVQAGGSLRLSCAASGLTFGDYTMGWYRQAPGKERELVAAISTSGGSTYYADSVKGRFTISRDNAKNTVYLQMNSLKPEDTAVYYCNARRTHTRSHYYYWGQGTQVTVSS ... high polyreactivity
QVQVVESGGGLVQAGGSLRLSCAASGRIFSHNAMGWYRQAPGNEWELVAGISSGGGTTYADSVKGRFTLSRDNAKNTVYLQMNSLKPEDTAVYYCNKQDQPVGRSGYPYGYDYWGQGTQVTVSS ... low polyreactivity
QVQLVESGGGLVQAGGSLRLSCAASGSTFTLNAMGWYRQAPGKERELVADISWSSGRTYYADSVKGRFTISRDNAKNTVYLQMNSLKPEDTAVYYCATYDFWNVKFYAYYPEFDYWGQGTQVTVSS ... low polyreactivity
QVQLVESGGGLVQAGGSLRLSCAASGITFFFNAMGWYRQAPGKERELVAAITSGAGSTYYADSVKGRFTISRDNAKITVYLQMNSLKPEDTAVYYCASEWSYGGMDYWGQGTQVNVSS ... low polyreactivity

Task: Sample `QVQLGESGGGLVQAGGSLRLSCAASGSTFDYYAMGWYRQAPGKERELVAGITSDGSTYYADSVKGRFTISRDNAKNTVYLQMNSLKPEDTAVYYCNKDSTGDGYEYWGQGTQVTVSS` — what was its polyreactivity (PSR sort gate)?
Result: low polyreactivity

Task: Sample `QVQLVESGGGLVQAGGSLRLSCAASGLTFPFYAMGWYRQAPGKERELVAAITGSGGITYYADSVKGRFTISRDNAKNTVYLQMNSLKPEETAVYYCAFDYTYYTSFVPLFGFDYWGQGTQVTVSS` — what was its polyreactivity (PSR sort gate)?
Result: low polyreactivity

Task: Sample `QVQLVESGGGLVQAGGSLRISCAASGFTFRYNAMGWYRQAPVKERELVATISSRGGSTNYADSVKGRFTISRDNAKNTVYLLMNSLKPEDTAVYYCNNVRYRDLKRYDYWGQGTQVTVSS` — what was its polyreactivity (PSR sort gate)?
Result: high polyreactivity

Task: Sample `QVQLVESGGGLVQAGGSLRLTCAASGRPFGKNGMGWYRQAPGKEREWVAAISLSGGSTYYADSVKGRFTISRDYAKNTVYLQMNSLKPEDTAVYYCAAYGIRGPVYQYYFWGQGTQVTVSS` — what was its polyreactivity (PSR sort gate)?
Result: low polyreactivity

Task: Sample `QVQLGESGGGLVKAGGSLRLSCAASGRIFFDYGMGGYRQAPGKERELVADITRGGGSTYYADSVKGRFTISRDNAKNTVYLQINSQKPEDTAVYYCAKESSCYYPQRFDYWGQVTQVTVSS` — what was its polyreactivity (PSR sort gate)?
Result: low polyreactivity

Task: Sample `QVQLVESGGGIVQAGGSLRLSCAASGRIFGWYAMGWYREAPGKERELVAAISSGGRTKYADSVKGRFTISRDNAKNTVYLQMNSLKAEDTAVYYCNARRSYLPYKFGYDYWGQGTQVTVSS` — what was its polyreactivity (PSR sort gate)?
Result: low polyreactivity

Task: Sample `QVQLVESGGGLVQAGGSLRLTCAASGRTFRPYAMGGYRQAPGKERQLVAAITYSGGSTYYADSVKGRFTISRDNAKNTVYLQMNSLKPEDTAVYYCAAEIAATYRPEYDYWGQGTQVTVSS` — what was its polyreactivity (PSR sort gate)?
Result: high polyreactivity

Task: Sample `QVQLVESGGGLDQARGTLRLSCAASGITITLYAMGWYRQTPGKESELVAAISRGGGTTNYADSVKGRFTISRDNAKNTVFLELNSLKPEDNAVYYCAAAYTIYWFSYRVLYYYWGQGTQVTVSS` — what was its polyreactivity (PSR sort gate)?
Result: low polyreactivity
